Tested System: human 5-hydroxytryptamine-2C (h5-HT2C) receptor (Homo sapiens, UniProt P28335)
Construct: expressed in transfected cells; host or cells: CHO (Chinese Hamster Ovary) cells; membranes
Sequence (P28335 33-458): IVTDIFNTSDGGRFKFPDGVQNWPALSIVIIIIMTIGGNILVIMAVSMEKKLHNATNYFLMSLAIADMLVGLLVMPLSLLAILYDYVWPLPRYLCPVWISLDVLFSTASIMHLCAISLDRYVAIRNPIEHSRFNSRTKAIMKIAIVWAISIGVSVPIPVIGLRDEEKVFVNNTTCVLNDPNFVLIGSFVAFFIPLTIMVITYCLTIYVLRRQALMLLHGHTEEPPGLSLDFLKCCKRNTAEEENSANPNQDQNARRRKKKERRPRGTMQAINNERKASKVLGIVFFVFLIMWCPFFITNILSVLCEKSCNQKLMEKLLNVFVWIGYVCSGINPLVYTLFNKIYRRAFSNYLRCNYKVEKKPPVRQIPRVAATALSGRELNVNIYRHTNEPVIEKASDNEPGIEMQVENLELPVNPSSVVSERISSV
Procedure Details: [125I]DOI binding to membranes of CHO cells expressing the human 5-HT2C receptor
Assay Setup: [125I]DOI radioligand, CHO cell membranes, room temperature 60 min; read-out: 5-HT2C Affinity Ki
Experimental Readout: pKi
Answers are plain numbers, as −log10 of the molar value.

# Compound, Numeric Value
rows = [
    ("CC(C)(C)c1cc(Cl)cc2c1OC(CN)C2 (single isomer, unassigned; (+)) [Example 29]", 7.46),
]

Record pKi per entry; entries follow.
1. NCC1Cc2cc(C(F)(F)F)cc(-c3ccc(F)c(F)c3)c2O1 (racemic)
2. Cc1cc(Cl)ccc1-c1cccc2c1OC(CN)C2 (single isomer, unassigned; (-)) [Example 159]
3. Cc1cccc(C)c1-c1cccc2c1OC(CN)C2 (single isomer, unassigned; (+)) [Example 58]
4. NCC1Cc2cccc(-c3c(F)cccc3F)c2O1 (racemic)
5. COc1cc2c(c(-c3ccccc3F)c1)OC(CN)C2 (racemic)
6. Cc1cccc(-c2cc(Cl)cc3c2OC(CN)C3)c1C (racemic)

Result ::
1: 6.49; 2: 7.92; 3: 8.05; 4: 8.60; 5: 9.20; 6: 8.05
